# credit: patent US6506766B1

measured_target: human glucocorticoid receptor-α [GRX] isoform (Homo sapiens, UniProt P04150)
Construct: host or cells: insect SF21 cells (baculovirus)
Sequence (P04150 1-777): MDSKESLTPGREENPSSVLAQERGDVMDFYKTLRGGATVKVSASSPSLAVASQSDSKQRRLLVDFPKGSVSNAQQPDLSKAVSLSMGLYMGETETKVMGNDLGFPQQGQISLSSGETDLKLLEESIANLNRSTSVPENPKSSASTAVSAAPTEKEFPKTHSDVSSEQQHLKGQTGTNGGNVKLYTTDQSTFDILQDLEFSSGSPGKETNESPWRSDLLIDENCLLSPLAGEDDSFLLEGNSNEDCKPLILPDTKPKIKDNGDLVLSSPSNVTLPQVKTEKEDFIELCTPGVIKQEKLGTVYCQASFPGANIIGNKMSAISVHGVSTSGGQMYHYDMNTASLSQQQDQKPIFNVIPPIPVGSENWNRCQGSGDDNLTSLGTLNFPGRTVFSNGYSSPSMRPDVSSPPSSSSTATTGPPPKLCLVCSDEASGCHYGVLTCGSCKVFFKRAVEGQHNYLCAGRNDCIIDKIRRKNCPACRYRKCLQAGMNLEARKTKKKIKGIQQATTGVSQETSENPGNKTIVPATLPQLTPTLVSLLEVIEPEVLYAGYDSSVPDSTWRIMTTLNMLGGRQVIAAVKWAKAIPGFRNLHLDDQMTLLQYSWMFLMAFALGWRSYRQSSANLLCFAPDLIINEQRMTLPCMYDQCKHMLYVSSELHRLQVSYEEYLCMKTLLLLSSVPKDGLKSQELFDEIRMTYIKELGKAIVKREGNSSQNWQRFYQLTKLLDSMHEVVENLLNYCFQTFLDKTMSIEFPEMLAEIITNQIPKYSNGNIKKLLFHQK
measurement_description: Radioligand binding with human glucocorticoid receptor cytosol ([3H]-dexamethasone competition)
condition_description: GRX cytosol expressed in insect SF21 cells, [3H]-Dex ~0.9 nM, 4° C. overnight; Ki by Cheng-Prusoff, KL ~[…]; read-out: Ki (nM) GR
quantity: Ki (nM)
Numbers only, in nM.

Answered cases to consult:
COc1cccc2c1-c1ccc3c(c1C(/C=C/COC(=O)N(C)C)O2)C(C)=CC(C)(C)N3 (centres unmarked)    23
C/C=C/CC1Oc2cccc(OC)c2-c2ccc3c(c21)C(C)=CC(C)(C)N3 (centres unmarked) [Example 191]    2.9
COc1c(O)ccc2c1-c1ccc3c(c1[C@H]([C@H]1C=CCCCC1)O2)C(C)=CC(C)(C)N3    0.86
COc1cccc2c1-c1ccc3c(c1C(c1ccc(O)cc1)O2)C(C)=CC(C)(C)N3 (centres unmarked)    31

Hey, can you go through the list below and give me Ki for every item?
1. COc1cccc2c1-c1ccc3c(c1C(CNC(=O)OC(C)(C)C)O2)C(C)=CC(C)(C)N3 (centres unmarked)
2. C#CCC1Oc2cccc(OC)c2-c2ccc3c(c21)C(C)=CC(C)(C)N3 (centres unmarked)
3. C=CCC1Oc2ccc(OCC#N)c(OC)c2-c2ccc3c(c21)C(C)=CC(C)(C)N3 (racemic)
4. COc1cccc(C2Oc3cccc(OC)c3-c3ccc4c(c32)C(C)=CC(C)(C)N4)c1 (centres unmarked)

1: 201; 2: 2.7; 3: 51; 4: 3.5

====

measured_target: human progesterone receptor-A [PRA] isoform (Homo sapiens, UniProt P06401)
Construct: host or cells: insect SF21 cells (baculovirus)
Sequence (P06401 165-933): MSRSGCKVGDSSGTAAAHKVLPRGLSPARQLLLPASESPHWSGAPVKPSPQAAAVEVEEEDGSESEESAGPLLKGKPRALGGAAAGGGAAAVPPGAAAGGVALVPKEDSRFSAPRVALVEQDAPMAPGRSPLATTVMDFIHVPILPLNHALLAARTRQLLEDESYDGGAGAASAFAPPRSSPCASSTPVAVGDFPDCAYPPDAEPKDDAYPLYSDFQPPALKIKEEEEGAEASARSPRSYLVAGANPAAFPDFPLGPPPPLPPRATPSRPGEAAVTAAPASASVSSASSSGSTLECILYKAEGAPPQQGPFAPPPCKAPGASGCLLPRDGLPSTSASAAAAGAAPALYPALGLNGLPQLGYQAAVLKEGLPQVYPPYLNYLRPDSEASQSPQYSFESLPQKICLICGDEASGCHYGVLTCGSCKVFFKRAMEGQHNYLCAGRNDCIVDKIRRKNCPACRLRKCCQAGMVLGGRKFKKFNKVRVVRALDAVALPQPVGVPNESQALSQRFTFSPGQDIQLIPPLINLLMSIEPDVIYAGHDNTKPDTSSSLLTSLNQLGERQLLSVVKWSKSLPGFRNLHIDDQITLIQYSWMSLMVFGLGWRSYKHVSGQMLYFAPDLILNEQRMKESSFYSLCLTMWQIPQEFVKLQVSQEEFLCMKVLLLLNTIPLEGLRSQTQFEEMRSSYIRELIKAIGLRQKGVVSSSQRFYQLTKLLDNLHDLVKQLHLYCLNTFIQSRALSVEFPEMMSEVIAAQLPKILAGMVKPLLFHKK
measurement_description: Radioligand binding with human progesterone receptor cytosol ([3H]-progesterone competition)
condition_description: PRA cytosol expressed in insect SF21 cells, [3H]Prog ~0.8 nM, 4° C. overnight; Ki by Cheng-Prusoff, KL ~4.5 nM; read-out: Ki (nM) PR
quantity: Ki

Answered cases to consult:
COc1cccc2c1-c1ccc3c(c1C(CCO)O2)C(C)=CC(C)(C)N3 (centres unmarked)    ≥ 10000 nM
C=C=CC1Oc2ccc(O)c(OC)c2-c2ccc3c(c21)C(C)=CC(C)(C)N3 (centres unmarked)    27.5 nM
COc1cccc2c1-c1ccc3c(c1C(CC(=O)NC1CC1)O2)C(C)=CC(C)(C)N3 (centres unmarked)    ≥ 10000 nM
COc1cccc2c1-c1ccc3c(c1C([C@H]1C=C(CSC)CCC1)O2)C(C)=CC(C)(C)N3 (stereo in doubt)    ≥ 10000 nM

As a next step, examine the molecule that follows.
For the record `COc1cccc2c1-c1ccc3c(c1C(=Cc1cccc(Cl)n1)O2)C(C)=CC(C)(C)N3` , what value of Ki is listed for human progesterone receptor-A [PRA] isoform (Homo sapiens, UniProt P06401)?
≥ 10000 nM
